# Read-out: CYP2C9 (gene 1559)
# test_protocol: LTEA_HepaRG_CYP2C9: Life Technologies and Expression Analysis (LTEA) Assay for CYP2C9 using HepaRG (AID 2283484)
# condition: mRNA level, 48 h; actives raise or lower the signal
Activity calls are given as the source filed them. How the source made its calls: active means hit-call score of the fitted dose curve at least 0.9, where 1 is the maximum; inactive means score below 0.9.
Returns: one label drawn from active, inactive

Hi, sorry to bother you, what did the test record for `CCN(CC)C(=S)SSC(=S)N(CC)CC` ?
inactive

State the result this test recorded for `COCc1nnc(-c2ccc[n+]([O-])c2)n1-c1c(Cl)c(Cl)cc2[nH]c(=O)c(=O)[nH]c12` .
inactive

Give the logged outcome of this assay for the following compound: `CCCCN1C(=O)[C@@H]([C@H](O)C2CCCCC2)NC(=O)C12CCN(Cc1ccc(Oc3ccc(C(=O)O)cc3)cc1)CC2`
active

Record request — test call for `OC(Cn1cncn1)(Cn1cncn1)c1ccc(F)cc1F`
inactive

Tell me the recorded outcome of this test for `COS(C)(=O)=O` .
inactive

Per the assay record, what outcome was assigned to `O=S1(=O)CCCO1` ?
inactive

Hey, what did the test say about CC(C)CC(C)O (centres undefined) ?
inactive

Please indicate how the test categorized `Cc1nc(-c2ccccn2)ncc1C(=O)Nn1cc(C)c2cc(F)ccc21` .
active

Which result was noted for this compound in the test: `Nc1ccn([C@@H]2O[C@H](CO)[C@@H](O)[C@@H]2O)c(=O)n1`
inactive

###

# test_protocol: APR_HepG2_CellLoss_72hr: Apredica 72-hour HepG2 Assay for Cell Loss (AID 2282915)
# condition: high-content imaging
Calls of active or inactive are those of the source. How the source made its calls: active means hit-call score of the fitted dose curve at least 0.9, where 1 is the maximum; inactive means score below 0.9.
Field 'call' accepts 1 (yes) for active, 0 (no) for inactive

Any idea what this test logged for `COc1cc(C(C)C)c2c(c1)S(=O)(=O)N(COc1cc(=O)n3cccc(OCCN4CCCCC4)c3n1)C2=O` ?
1 (yes)

# outcome recorded in this test, key = `Nc1ccn([C@@H]2O[C@H](CO)[C@@H](O)[C@@H]2O)c(=O)n1`
1 (yes)

GET /call?item= `CCCCCCOC(=O)CC(CC(=O)OCCCCCC)(OC(=O)CCC)C(=O)OCCCCCC` returns the recorded outcome of this test.
0 (no)

Please let me know the test result on file for `COc1cc2c(c(OC)c1OC)-c1ccc(OC)c(=O)cc1[C@@H](NC(C)=O)CC2` .
1 (yes)

Hi team, can someone confirm the assay call for `NC(N)=O` ?
0 (no)

Any idea what this test logged for `Cc1nccn1-c1ccc(Sc2cccc(C3(C(N)=O)CCOCC3)c2)cc1` ?
1 (yes)

I would be grateful if you could indicate the recorded call for `CC(C)c1nnc2ccc(-c3ocnc3-c3cc(F)ccc3F)cn12` .
0 (no)

Outcome? `CCCCOC(=O)c1ccccc1`
0 (no)

Answer briefly: the call reported for `CCc1ccc(O)c(C(C)(C)C)c1` in this assay.
1 (yes)

Tell me the assay call for `CCOC(N)=O` please.
0 (no)

Hi, sorry to bother you, what did the test record for `Cn1c(=O)c2[nH]cnc2n(C)c1=O` ?
0 (no)

# lookup: test call for `C=CN1CCCC1=O`
0 (no)

GET /call?item= `NC(=O)NN=Cc1ccc([N+](=O)[O-])o1` returns the recorded outcome of this test.
1 (yes)

Hi team, can someone confirm the assay call for `OCc1ccccc1` ?
0 (no)

Record request — test call for `CCn1nc(C)c2c1C(=O)NCC(c1ccc(O)cc1)=N2`
0 (no)

Tell me the assay call for `OCCNCCO` please.
0 (no)

Please share the test call associated with `OC(Cn1cncn1)(Cn1cncn1)c1ccc(F)cc1F` .
0 (no)

Field: outcome | Entry: `CCCCCOC(C)=O`
0 (no)

Hey, what did the test say about `CCCCCCCCN(C)C` ?
0 (no)

What call does the record list for `CCCc1ccccc1` ?
0 (no)

GET /call?item= `c1ccc(C(O[C@@H]2CCCN(CCc3ccc4c(c3)OCO4)C2)c2ccccc2)cc1` returns the recorded outcome of this test.
1 (yes)

What call does the record list for `CCN(CC)C(=S)SSC(=S)N(CC)CC` ?
1 (yes)

Can you look up the reported call for CCCCC(CC)C(=O)OCCOCCOCCOC(=O)C(CC)CCCC (stereo not given) for me?
1 (yes)

Could you check what this test reported for `O=C(O)c1ccc2c(c1)nc(C(=O)NC1CCN(C3CC3)CC1)n2Cc1cc(-c2ccc(Cl)s2)on1` ?
0 (no)

Please state the recorded outcome for this molecule: `OC[C@H]1O[C@@H]2O[C@H]3[C@H](O)[C@@H](O)[C@@H](O[C@H]4[C@H](O)[C@@H](O)[C@@H](O[C@H]5[C@H](O)[C@@H](O)[C@@H](O[C@H]6[C@H](O)[C@@H](O)[C@@H](O[C@H]7[C@H](O)[C@@H](O)[C@@H](O[C@H]1[C@H](O)[C@H]2O)O[C@@H]7CO)O[C@@H]6CO)O[C@@H]5CO)O[C@@H]4CO)O[C@@H]3CO`
0 (no)
